Ref: ChEMBL document CHEMBL1799988

# target-system: Nuclear factor erythroid 2-related factor 2 (Homo sapiens) (UniProt Q16236)
# Sequence (whole entry): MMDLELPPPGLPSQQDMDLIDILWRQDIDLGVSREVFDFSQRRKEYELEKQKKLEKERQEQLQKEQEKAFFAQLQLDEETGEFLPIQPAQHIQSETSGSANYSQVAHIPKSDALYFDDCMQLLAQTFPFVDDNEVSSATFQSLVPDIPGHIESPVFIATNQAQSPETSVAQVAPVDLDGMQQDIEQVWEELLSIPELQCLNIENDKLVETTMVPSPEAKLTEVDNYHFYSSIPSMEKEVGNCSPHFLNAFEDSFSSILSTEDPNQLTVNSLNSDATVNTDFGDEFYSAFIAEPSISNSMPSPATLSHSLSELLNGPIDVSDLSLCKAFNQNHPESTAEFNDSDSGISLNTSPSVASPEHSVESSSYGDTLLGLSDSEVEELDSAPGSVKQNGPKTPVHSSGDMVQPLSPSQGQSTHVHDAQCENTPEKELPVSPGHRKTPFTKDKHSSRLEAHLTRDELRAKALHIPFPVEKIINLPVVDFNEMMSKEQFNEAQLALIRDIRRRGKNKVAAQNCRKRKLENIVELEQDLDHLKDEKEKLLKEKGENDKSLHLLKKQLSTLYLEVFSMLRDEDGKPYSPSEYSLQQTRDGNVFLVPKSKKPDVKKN
# test: Induction of Nrf2-mediated NQO1 gene expression in human BEAS2B cells at 10 uM after 16 hrs by RT-PCR analysis relative to untreated control
# Assay type: functional, cell-based
Entries and their measured fold change (FC) follow.

Consider the following illustrative entries.
{"molecule": "COc1ccc(C(=O)/C=C/c2cccc(C(F)(F)F)c2)c(OC)c1OC", "target-system": "Nuclear factor erythroid 2-related factor 2 (Homo sapiens) (UniProt Q16236)", "result": 3.2}
{"molecule": "COc1ccc(OC)c(C(=O)/C=C/c2ccccc2C(F)(F)F)c1", "target-system": "Nuclear factor erythroid 2-related factor 2 (Homo sapiens) (UniProt Q16236)", "result": 2.7}
{"molecule": "COc1cccc(OC)c1C(=O)/C=C/c1ccccc1", "target-system": "Nuclear factor erythroid 2-related factor 2 (Homo sapiens) (UniProt Q16236)", "result": 1.9}
{"molecule": "COc1cc(OC)cc(C(=O)/C=C/c2ccccc2C(F)(F)F)c1", "target-system": "Nuclear factor erythroid 2-related factor 2 (Homo sapiens) (UniProt Q16236)", "result": 3.7}
{"molecule": "O=C(/C=C/c1ccccc1)c1ccccc1", "target-system": "Nuclear factor erythroid 2-related factor 2 (Homo sapiens) (UniProt Q16236)", "result": 1.8}

Consider the additional compound presented here.
Entry COc1ccc(C(=O)/C=C/c2ccccc2C(F)(F)F)cc1OC , fold change (FC) reported as 2.7
